Just for reference, patent US8969336B2 is where these values come from.

Reported rate of regression (tumor volume) values follow for various compounds
tested on: EML4-ALK fusion protein v1 expressing 3T3 cells; test: Antitumor test (in vivo) on EML4-ALK fusion protein v1 expressing 3T3 cells; details: oral 10 mg/kg once a day for 5 days, Balb/c nude mice, EML4-ALK v1 3T3 tumor; values marked (regression)

Worked cases, answers included:
• CCc1nc(C(N)=O)c(Nc2ccc(N3CCN(C4CCN(C)CC4)CC3)c(C)c2)nc1NC1CCOCC1 [Example 558] = 37 (regression) %
• CC(C)c1nc(C(N)=O)c(Nc2ccc(N3CCC(N4CCN(C)CC4)CC3)cc2)nc1NC1CCOCC1 [Example 549] = 67 (regression) %
• CCc1nc(C(N)=O)c(Nc2ccc(N3CCC(N4CCN(C)CC4)CC3)c(C)c2)nc1N[C@H]1CC[C@@](C)(O)CC1 [Example 392] = 28 (regression) %

Next up:
Request: Notebook entry, EML4-ALK fusion protein v1 expressing 3T3 cells assay: rate of regression (tumor volume) of CCc1nc(C(N)=O)c(Nc2ccc(N3CCC(N4CCN(C)CC4)CC3)c(C)c2)nc1N[C@H]1CC[C@](C)(O)CC1 [Example 466] = ?
Response: 54 (regression) %
